Target Entity: T1, Class I HLA molecule B*0801 in recombinant form (UniProt P01889 25-309, limits assumed)
T1 MHC heavy: not shown
Protocol Details: iTopia ELISA-like peptide-HLA binding
Endpoint Label: Bond results
Number first, unit second: that is the form wanted.

# example entries with known answers
| Binder | Bond results |
| --- | --- |
| VLTQSPGTL [VK3-20 peptide No 3 VLTQSPGTL] | 1% |
| LLIYGASSR [VK3-20 peptide No 47 LLIYGASSR] | 1% |
| KPGQAPRLL [VK3-20 peptide No 40 KPGQAPRLL] | 1% |
| RTFGQGTKV [VK3-20 peptide No 97 RTFGQGTKV] | 2% |

So for SPRTFGQGT [VK3-20 peptide No 95 SPRTFGQGT] , the logged Bond results turned out to be 2%
